experimental endpoint: melting point

I'd like to know its melting point. The compound in question is Cc1nn(-c2ccncc2)c2nc3ccccc3c(N)c12.Cl.Cl
259 to 266 °C

Requested field: melting point. Item: CCOc1cccc(-n2nc(C)c3c(Cl)c4c(C)cccc4nc32)n1
146 to 148 °C

I would be grateful if you could share the reported melting point for FC(F)(F)c1nn(-c2ccccn2)c2nc3ccccc3c(Cl)c12 .
166 to 168 °C

Entry COC(=O)c1ccc2c(Cl)c3c(C)nn(-c4ccccn4)c3nc2c1 has what melting point?
239 to 240 °C

Report melting point for Cc1cccc2c(Cl)c3c(C)nn(-c4ccccn4)c3nc12 please.
170 to 172 °C
